Tested target: CDK4/cyclin D3 (Homo sapiens)
Construct: purchased Carna Biosciences, Inc. QS S Assist CDK4/Cyclin D3_FP Kit
Test name: Human CDK4/cyclin D3 inhibitory activity (QS S Assist CDK4/Cyclin D3_FP Kit, IMAP fluorescence polarization)
Type: biochemical
Measurement parameters: Human CDK4/cyclin D3 inhibitory activity; read-out: CDK4 Activity symbol
Field: IC50. Provide a value for each of the molecules that follow.

Some molecules with known IC50 results, for comparison:
structure_notation=CC(C)Nc1nc([C@@H](C)O)cc2cnc(Nc3ccc(OCC(=O)N4CCNCC4)cn3)nc12 observed="< 10 nM"
structure_notation=COCC(C)(C)Nc1nc([C@@H](C)O)cc2cnc(Nc3ccc(CN4CCc5nc(C)[nH]c5C4)cn3)nc12 observed="≥ 100 nM"
structure_notation=FC(F)c1cc2cnc(Nc3ccc(CN4CCNCC4)cn3)nc2c(N[C@H]2CCCOC2)n1 observed="< 10 nM"

Now let's try a different one.
Entry under review: `CO[C@H](C)c1cc2cnc(Nc3ccc(CN4CCCOCC4)cn3)nc2c(NC(C)C)n1` . Reported IC50? < 10 nM

###

I'd be grateful if you could share measured pIC50 for these entries.
Tested target: CDK4/cyclin D3 (Homo sapiens, UniProt P11802)
Construct: purchased Carna Biosciences, Inc. QS S Assist CDK4/Cyclin D3_FP Kit
Sequence (P11802 whole entry): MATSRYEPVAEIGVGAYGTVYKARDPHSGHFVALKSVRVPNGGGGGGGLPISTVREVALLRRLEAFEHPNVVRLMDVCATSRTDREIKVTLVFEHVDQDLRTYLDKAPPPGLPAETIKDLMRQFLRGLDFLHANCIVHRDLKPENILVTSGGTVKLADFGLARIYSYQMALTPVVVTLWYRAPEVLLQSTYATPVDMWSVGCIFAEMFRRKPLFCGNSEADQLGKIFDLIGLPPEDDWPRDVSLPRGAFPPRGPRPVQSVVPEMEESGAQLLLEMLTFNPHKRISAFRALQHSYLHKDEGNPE
Sequence (P30281 whole entry partner): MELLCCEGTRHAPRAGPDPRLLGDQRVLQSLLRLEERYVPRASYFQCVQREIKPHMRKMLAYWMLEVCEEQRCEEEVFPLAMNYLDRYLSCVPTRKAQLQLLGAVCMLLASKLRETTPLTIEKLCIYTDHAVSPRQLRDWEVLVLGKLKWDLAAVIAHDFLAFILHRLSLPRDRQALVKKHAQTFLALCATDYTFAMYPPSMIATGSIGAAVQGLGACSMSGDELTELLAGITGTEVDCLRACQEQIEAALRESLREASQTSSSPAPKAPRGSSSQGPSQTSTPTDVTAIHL
Test name: Human CDK4/cyclin D3 inhibitory activity (QS S Assist CDK4/Cyclin D3_FP Kit, IMAP fluorescence polarization)
Type: biochemical
Measurement parameters: Human CDK4/cyclin D3 inhibitory activity; read-out: CDK4 Activity symbol
pIC50: −log10 of the molar value.

Please review the entries below; each comes with its answer.
compound="CC(CO)Nc1nc(C(C)O)cc2cnc(Nc3ccc(N4CCNCC4)cn3)nc12 (centres unmarked) [Compound 41]" observed="> 8.00"
compound="O[C@H]1CC[C@H](Nc2nc(C(F)F)cc3cnc(Nc4ccc(N5CCNCC5)nn4)nc23)CC1 [Compound 387]" observed="> 8.00"
compound="CC(C)Nc1nc([C@@H](C)O)cc2cnc(Nc3ccc(OC4CCNC4)nn3)nc12 (some centres unmarked) [Compound 544]" observed="> 8.00"

Look up pIC50 for the entries below, preserving their order.
1. C[C@@H](O)c1cc2cnc(Nc3ccc(N4CCNCC4=O)cn3)nc2c(N[C@H]2CCCOC2)n1 [Compound 347]
2. CC(C)Nc1nc([C@@H](C)O)cc2cnc(Nc3ccc(O[C@H]4CNC[C@@H]4F)nn3)nc12 [Compound 545]
3. CC(C)Nc1nc(C(F)F)cc2cnc(Nc3ccc(N4CCNC(=O)C4)cn3)nc12 [Compound 83]
4. CC(C)Nc1nc(C(F)F)cc2cnc(Nc3ccc(CCCC(=O)O)cn3)nc12 [Compound 136]
5. COC(C)c1cc2cnc(Nc3ccc(N4CCCNCC4)cn3)nc2c(NC(C)C)n1 (centres unmarked) [Compound 453]
6. COC(C)c1cc2cnc(Nc3ccc(CN4CCNCC4)cn3)nc2c(NC(C)C2CCCO2)n1 (centres unmarked) [Compound 409]
7. CC(C)Nc1nc([C@@H](C)O)cc2cnc(Nc3ccc(N4CC5(CNC5)C4)nn3)nc12 [Compound 562]
8. CC(C)Nc1nc(C(F)F)cc2cnc(Nc3ccc(CN4CCC(C(=O)NS(C)(=O)=O)CC4)cn3)nc12 [Compound 236]

["> 8.00", "> 8.00", "> 8.00", "7.00 to 8.00", "> 8.00", "> 8.00", "> 8.00", "> 8.00"]

# per-item lookup of pIC50; items listed below
1. CC(C)Nc1nc(C(F)F)cc2cnc(Nc3ccc(-n4cnnn4)cn3)nc12 [Compound 211]
2. COCC(C)(C)Nc1nc(C(F)F)cc2cnc(Nc3ccc(N4CCNCC4)cn3)nc12 [Compound 31]
3. COC(C)c1cc2cnc(Nc3ccc(CN4CCNCC4)cn3)nc2c(NCC2CC(F)(F)C2)n1 (centres unmarked) [Compound 465]
4. CC(C)Nc1nc(C(F)F)cc2cnc(Nc3ccc(CN4CCNCC4)cn3)nc12 [Compound 47]
5. COC(C)c1cc2cnc(Nc3ccc(CN4CCNCC4)cn3)nc2c(SC(C)C)n1 (centres unmarked) [Compound 456]

1: 7.00 to 8.00; 2: > 8.00; 3: > 8.00; 4: > 8.00; 5: > 8.00

I'm hoping you can list pIC50 for every compound here, please.
1. CC(C)Nc1nc(C(F)F)cc2cnc(Nc3ccc(N4CCC(N)C4)cn3)nc12 (centres unmarked) [Compound 52]
2. CC(C)Nc1nc([C@@H](C)O)cc2cnc(Nc3ccc(CN4CCNC(=O)C4)cn3)nc12 [Compound 234]
3. CNCCOc1ccc(Nc2ncc3cc([C@@H](C)O)nc(NC(C)C)c3n2)nn1 [Compound 552]

> 8.00
> 8.00
> 8.00

For every item below, please supply its pIC50.
1. CC1(C)NCCN(c2ccc(Nc3ncc4cc(C(F)F)nc(N[C@H]5CC[C@H](C(=O)O)CC5)c4n3)nc2)C1=O [Compound 442]
2. CC(C)Nc1nc(C(C)O)cc2cnc(Nc3ccc(CN4CCNCC4)cn3)nc12 (centres unmarked) [Compound 79]

["≤ 7.00", "> 8.00"]

Please give pIC50 for each item listed below.
1. CC(C)Nc1nc(C(F)F)cc2cnc(Nc3ccc(CN(C4CCOC4)S(C)(=O)=O)cn3)nc12 (centres unmarked) [Compound 162]
2. CC(C)Nc1nc([C@@H](C)O)cc2cnc(Nc3ccc(N4CCC(N)C4=O)cn3)nc12 (some centres unmarked) [Compound 583]
3. CO[C@H](C)c1cc2cnc(Nc3ccc(CN4CCOCC4(C)C)cn3)nc2c(NC(C)C)n1 [Compound 279]
4. CC(C)Nc1nc(C(F)F)cc2cnc(Nc3ccc(CN4CCCC4C(=O)O)cn3)nc12 (centres unmarked) [Compound 189]
5. CC(C)Oc1nc(C(C)O)cc2cnc(Nc3ccc(N4CCNCC4)nn3)nc12 (centres unmarked) [Compound 269]
6. CC(C)Nc1nc([C@@H](C)O)c(Cl)c2cnc(Nc3ccc(N4CCNCC4=O)cn3)nc12 [Compound 247]

["7.00 to 8.00", "> 8.00", "7.00 to 8.00", "> 8.00", "> 8.00", "> 8.00"]

# return pIC50 for each item in the list
1. COC(C)c1cc2cnc(Nc3ccc(CN4CCNCC4)cn3)nc2c(NC2CCNCC2)n1 (centres unmarked) [Compound 399]
2. CO[C@H](C)c1cc2cnc(Nc3ccc(N4CCC(N(C)C)CC4)nn3)nc2c(NC(C)C)n1 [Compound 489]
3. CC(C)Nc1nc(C(C)O)cc2cnc(Nc3ccc(N4CCCC(O)C4)nn3)nc12 (single isomer, unassigned) [Compound 581]
4. CC(C)Nc1nc(C(F)F)c(F)c2cnc(Nc3ccc(N4CCNCC4)cn3)nc12 [Compound 55]
5. CC(C)Nc1nc(C(C)O)cc2cnc(Nc3ccc(N4CCN(C)CC4)cn3)nc12 (centres unmarked) [Compound 71]

["7.00 to 8.00", "> 8.00", "> 8.00", "> 8.00", "> 8.00"]

src = patent US10124004B2
